List of MIC tested on Altemaria solani.
Experimental readout: MIC (µg/mL)

{"Compound": "CC1CCN(c2c(-c3c(F)cc(F)cc3F)c(Cl)nc3ncnn23)CC1 [Example 2]", "Endpoint value": 40}
{"Compound": "OC1CCCN(c2c(-c3c(F)cc(F)cc3F)c(Cl)nc3ncnn23)C1 (stereo not drawn) [Example 41]", "Endpoint value": 6250}
{"Compound": "CC(C)CN(CC(F)(F)F)c1c(-c2c(F)cc(F)cc2F)c(Cl)nc2ncnn12 [Example 26]", "Endpoint value": 200}
{"Compound": "Fc1cc(F)c(-c2c(Cl)nc3ncnn3c2NCC(F)(F)F)c(F)c1 [Example 12]", "Endpoint value": 1560}
{"Compound": "Fc1cc(F)c(-c2c(Cl)nc3ncnn3c2NC(c2ccccc2)C(F)(F)F)c(F)c1 (stereo not drawn) [Example 52]", "Endpoint value": 3130}
{"Compound": "CC(C)CCN(C)c1c(-c2c(F)cc(F)cc2F)c(Cl)nc2ncnn12 [Example 54]", "Endpoint value": 780}

---

Test system: Uncinula necator
Experimental protocol: Control of powdery mildew on grapes, prophylactic greenhouse test
Format: in vivo
Run conditions: Erysiphe necator; Concentration 25.00 ppm; grape cultivar Müller-Thurgau; application 3 days before infection; evaluation 21 days after infection; read-out: % activity (ABBOTT formula)
Form field: activity at 25 ppm (one value per entry).
Experimental readout: activity at 25 ppm (%)

{"Compound": "Fc1cc(F)c(-c2c(Cl)nc3ncnn3c2NC2CC3CCC2C3)c(F)c1 (stereo not shown)", "Unit name": "%", "Endpoint value": 100}
{"Compound": "CCCC(Cn1cncn1)c1ccc(Cl)cc1Cl (stereo not shown) [Penconazole, reference compound]", "Unit name": "%", "Endpoint value": 58}
{"Compound": "OC(c1ccc(Cl)cc1)(c1cncnc1)c1ccccc1Cl (stereo not shown) [Fenarimol, reference compound]", "Unit name": "%", "Endpoint value": 99}
{"Compound": "CC1CCN(c2c(-c3c(F)cccc3Cl)c(Cl)nc3ncnn23)CC1 [standard^1, reference compound]", "Unit name": "%", "Endpoint value": 73}
{"Compound": "Fc1cc(F)c(-c2c(Cl)nc3ncnn3c2NCC(F)(F)F)c(F)c1", "Unit name": "%", "Endpoint value": 100}
{"Compound": "CC1CCN(c2c(-c3c(F)cc(F)cc3F)c(Cl)nc3ncnn23)CC1", "Unit name": "%", "Endpoint value": 100}
{"Compound": "CC(C)CN(CC(F)(F)F)c1c(-c2c(F)cc(F)cc2F)c(Cl)nc2ncnn12", "Unit name": "%", "Endpoint value": 27}

---

Test system: Rhizoctonia solani
Experimental protocol: Minimum Inhibitory Concentration, serial dilution test
Assay type: cell-based
Run conditions: total inhibition of mycelial growth; V8 nutrient solution; 6-12 days incubation at 18-25°C; visual inspection
Experimental readout: MIC (Minimum Inhibitory Concentration) RHISZO

{"Molecule": "CC(C)C(Nc1c(-c2c(F)cc(F)cc2F)c(Cl)nc2ncnn12)C(F)(F)F (stereo not shown) [Example 55]", "Endpoint value": "12500 µg/mL"}
{"Molecule": "CN(CC(F)(F)F)c1c(-c2c(F)cc(F)cc2F)c(Cl)nc2ncnn12 [Example 27]", "Endpoint value": "1560 µg/mL"}
{"Molecule": "CC(Nc1c(-c2c(F)cc(F)cc2F)c(Cl)nc2ncnn12)C(F)(F)F (stereo not shown) [Example 28]", "Endpoint value": "3130 µg/mL"}
{"Molecule": "CCCC(Nc1c(-c2c(F)cc(F)cc2F)c(Cl)nc2ncnn12)C(C)C (stereo not shown) [Example 57]", "Endpoint value": "110000 µg/mL"}

---

System: Phytophthora infestans
Experimental protocol: microbe, parasite or virus in culture
Format: cell-based
Run conditions: total inhibition of mycelial growth; V8 nutrient solution; 6-12 days incubation at 18-25°C; visual inspection
Form field: MIC (Minimum Inhibitory Concentration) PHYTIN (one value per entry).
Experimental readout: MIC (Minimum Inhibitory Concentration) PHYTIN (mg/mL)

{"Compound": "CN(CC(F)(F)F)c1c(-c2c(F)cc(F)cc2F)c(Cl)nc2ncnn12", "Study system": "Phytophthora infestans", "Unit name": "mg/mL", "Endpoint value": 110}
{"Compound": "CCCC(Nc1c(-c2c(F)cc(F)cc2F)c(Cl)nc2ncnn12)C(C)C (centres unmarked)", "Study system": "Phytophthora infestans", "Unit name": "mg/mL", "Endpoint value": 110}
{"Compound": "CC(Nc1c(-c2c(F)cc(F)cc2F)c(Cl)nc2ncnn12)C(F)(F)F (centres unmarked)", "Study system": "Phytophthora infestans", "Unit name": "mg/mL", "Endpoint value": 110}
{"Compound": "CC(C)C(Nc1c(-c2c(F)cc(F)cc2F)c(Cl)nc2ncnn12)C(F)(F)F (centres unmarked)", "Study system": "Phytophthora infestans", "Unit name": "mg/mL", "Endpoint value": 100}
{"Compound": "C[Si](C)(C)CN(CC(F)(F)F)c1c(-c2c(F)cc(F)cc2F)c(Cl)nc2ncnn12", "Study system": "Phytophthora infestans", "Unit name": "mg/mL", "Endpoint value": 25}

---

System: Uncinula necator
Experimental protocol: Control of powdery mildew on grapes, prophylactic greenhouse test
Type: in vivo
Run conditions: Erysiphe necator; Concentration 12.50 ppm; grape cultivar Müller-Thurgau; application 3 days before infection; evaluation 21 days after infection; read-out: % activity (ABBOTT formula)
Form field: activity at 12.5 ppm (one value per entry).

{"Compound": "OC(c1ccc(Cl)cc1)(c1cncnc1)c1ccccc1Cl (stereo not shown) [Fenarimol, reference compound]", "activity at 12.5 ppm (%)": 95}
{"Compound": "CC1CCN(c2c(-c3c(F)cccc3Cl)c(Cl)nc3ncnn23)CC1 [standard^1, reference compound]", "activity at 12.5 ppm (%)": 44}
{"Compound": "CC1CCN(c2c(-c3c(F)cc(F)cc3F)c(Cl)nc3ncnn23)CC1", "activity at 12.5 ppm (%)": 100}
{"Compound": "CCCC(Cn1cncn1)c1ccc(Cl)cc1Cl (stereo not shown) [Penconazole, reference compound]", "activity at 12.5 ppm (%)": 31}
{"Compound": "CC(C)CN(CC(F)(F)F)c1c(-c2c(F)cc(F)cc2F)c(Cl)nc2ncnn12", "activity at 12.5 ppm (%)": 22}
{"Compound": "Fc1cc(F)c(-c2c(Cl)nc3ncnn3c2NC2CC3CCC2C3)c(F)c1 (stereo not shown)", "activity at 12.5 ppm (%)": 100}
{"Compound": "Fc1cc(F)c(-c2c(Cl)nc3ncnn3c2NCC(F)(F)F)c(F)c1", "activity at 12.5 ppm (%)": 100}

---

Tested on: Magnaporthe grisea f. sp. Oryzae
Experimental protocol: microbe, parasite or virus in culture
Type: cell-based
Run conditions: total inhibition of mycelial growth; V8 nutrient solution; 6-12 days incubation at 18-25°C; visual inspection
Experimental readout: MIC (Minimum Inhibitory Concentration) PYRIOR (µg/mL)

{"Compound": "C[Si](C)(C)CN(CC(F)(F)F)c1c(-c2c(F)cc(F)cc2F)c(Cl)nc2ncnn12 [Example 40]", "Endpoint value": 1560}
{"Compound": "CCCC(Nc1c(-c2c(F)cc(F)cc2F)c(Cl)nc2ncnn12)C(C)C (centres unmarked) [Example 57]", "Endpoint value": 40}
{"Compound": "CC(Nc1c(-c2c(F)cc(F)cc2F)c(Cl)nc2ncnn12)C(F)(F)F (centres unmarked) [Example 28]", "Endpoint value": 780}
{"Compound": "CN(CC(F)(F)F)c1c(-c2c(F)cc(F)cc2F)c(Cl)nc2ncnn12 [Example 27]", "Endpoint value": 100}
{"Compound": "CC(C)C(Nc1c(-c2c(F)cc(F)cc2F)c(Cl)nc2ncnn12)C(F)(F)F (centres unmarked) [Example 55]", "Endpoint value": 40}
